System: HUVEC (ATCC) cell line
Experiment: Cytotoxicity, metabolic cell activity (CellTiter 96 AQueous One), HUVEC
Format: cell-based
Details: compound 50 μM, two independent experiments
Quantity kind: mean percentage of metabolic activity of treated cells, HUVEC 50 μM (%)
Write the number in % without appending the unit.

[[record]]
compound = "COc1ccc2nccc(CCN3CCC(NCc4ccc(Cl)cc4)CC3)c2n1 [Compound C6]"
result_number = "−0.6"

[[record]]
compound = "C=CCn1cc(CNC2CCN(CCc3ccnc4ccc(OC)nc34)CC2)cn1 [Compound C11]"
result_number = 84.2

[[record]]
compound = "COc1ccc2nccc(CCN3CCC(NCc4ccc(F)cc4)CC3)c2n1 [Compound C5]"
result_number = 75.6


Reported mean percentage of metabolic activity of treated cells, HUVEC 50 μM ( COc1ccc2nccc(CCN3CCC(NCc4ccc(OC(F)F)c(O)c4)CC3)c2n1 [Compound C10] ) = 2.5

Reported mean percentage of metabolic activity of treated cells, HUVEC 50 μM ( COc1ccc2nccc(CCN3CCC(NCc4ccc(C(N)=O)cc4)CC3)c2n1 [Compound C3] ) = 66.1

Reported mean percentage of metabolic activity of treated cells, HUVEC 50 μM ( COc1ccc2nccc(CCN3CCC(NCc4ccc(I)cc4)CC3)c2n1 [Compound C8] ) = −0.3

Reported mean percentage of metabolic activity of treated cells, HUVEC 50 μM ( COc1ccc2nccc(CCN3CCC(NCc4ccccc4)CC3)c2n1 [Compound C1] ) = 63.4

Reported mean percentage of metabolic activity of treated cells, HUVEC 50 μM ( COc1ccc2nccc(CCN3CCC(NCc4ccc(OC(F)F)c(OC)c4)CC3)c2n1 [Compound C9] ) = 0.2
